meta.source: PubChem BioAssay AID179

System: CEM cells HIV-1 protection, formazan growth assay
PROCEDURE SUMMARY: NCI AIDS Antiviral Assay;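 active = compounds giving half or more protection of infected cells from virus-caused growth loss, again on retest; inactive = the rest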
Mark one answer only. Choices: yes (1) (active), no (0) (inactive)

Lookup: Could you check what this test reported for [O-]c1c2cc(-[n+]3c(-c4ccccc4)cc(-c4ccccc4)cc3-c3ccccc3)cc1CO[C@@H](c1ccccc1)[C@H](c1ccccc1)OCc1cccc(n1)CO[C@@H](c1ccccc1)[C@H](c1ccccc1)OC2 ?
Found: no (0)

Lookup: Could you check what this test reported for c1ccc(CSCCC(SCc2ccccc2)SCc2ccccc2)cc1 ?
Found: no (0)

Lookup: Could you check what this test reported for O=C(CCc1nnc2s/c(=C\c3ccc(Cl)cc3Cl)c(=O)n12)Nc1cc(Cl)c(Cl)cc1Cl ?
Found: no (0)

Lookup: Could you check what this test reported for O=C1CN(CCN2CCCCC2)CC(=O)N2CCCCN12 ?
Found: no (0)

Lookup: Could you check what this test reported for COC(=O)C1=Nc2c(C)nn(-c3ccccc3)c2N=C(c2ccccc2)C1 ?
Found: no (0)

Lookup: Could you check what this test reported for Cc1noc(NS(=O)(=O)c2ccc(NC(=O)c3ccccc3SC(=O)CCCC[n+]3ccccc3)cc2)c1C ?
Found: yes (1)

Lookup: Could you check what this test reported for O=c1[nH]c2ccccc2n1C1CCN(CCOc2ccccc2)CC1 ?
Found: no (0)

Lookup: Could you check what this test reported for c1ccc(N=C2SC(c3ccccc3)CN2C23CC4CC(CC(C4)C2)C3)cc1 (centres undefined) ?
Found: no (0)

Lookup: Could you check what this test reported for CCOC(=O)C(c1ccccc1)c1cccc(C(C(=O)OCC)c2ccccc2)n1 (centres undefined) ?
Found: no (0)

Lookup: Could you check what this test reported for O=[N+]([O-])c1cccc(C2ON2C2CCCCC2)c1 (centres undefined) ?
Found: no (0)

Lookup: Could you check what this test reported for CC(=O)NNc1nc(C)c(C(/C=C/c2ccc(Cl)cc2)=N\NS(=O)(=O)c2ccc(C)cc2)s1 ?
Found: no (0)

Lookup: Could you check what this test reported for C#CCCOC(=O)c1ccccc1OC(C)=O ?
Found: no (0)

Lookup: Could you check what this test reported for O=C(Nc1nc(C23CC4CC(CC(C4)C2)C3)cs1)c1c(O)c2ccccc2[nH]c1=O ?
Found: no (0)

Lookup: Could you check what this test reported for CN(C)C(=O)OC(Cn1cncn1)c1ccc(Cl)cc1Cl (centres undefined) ?
Found: no (0)
